assayTarget: EGFR del19/C797S (Homo sapiens, UniProt P00533, C797S/DEL746-750)
Sequence (P00533 with tags, fused parts or gaps DEL746-750/C797S): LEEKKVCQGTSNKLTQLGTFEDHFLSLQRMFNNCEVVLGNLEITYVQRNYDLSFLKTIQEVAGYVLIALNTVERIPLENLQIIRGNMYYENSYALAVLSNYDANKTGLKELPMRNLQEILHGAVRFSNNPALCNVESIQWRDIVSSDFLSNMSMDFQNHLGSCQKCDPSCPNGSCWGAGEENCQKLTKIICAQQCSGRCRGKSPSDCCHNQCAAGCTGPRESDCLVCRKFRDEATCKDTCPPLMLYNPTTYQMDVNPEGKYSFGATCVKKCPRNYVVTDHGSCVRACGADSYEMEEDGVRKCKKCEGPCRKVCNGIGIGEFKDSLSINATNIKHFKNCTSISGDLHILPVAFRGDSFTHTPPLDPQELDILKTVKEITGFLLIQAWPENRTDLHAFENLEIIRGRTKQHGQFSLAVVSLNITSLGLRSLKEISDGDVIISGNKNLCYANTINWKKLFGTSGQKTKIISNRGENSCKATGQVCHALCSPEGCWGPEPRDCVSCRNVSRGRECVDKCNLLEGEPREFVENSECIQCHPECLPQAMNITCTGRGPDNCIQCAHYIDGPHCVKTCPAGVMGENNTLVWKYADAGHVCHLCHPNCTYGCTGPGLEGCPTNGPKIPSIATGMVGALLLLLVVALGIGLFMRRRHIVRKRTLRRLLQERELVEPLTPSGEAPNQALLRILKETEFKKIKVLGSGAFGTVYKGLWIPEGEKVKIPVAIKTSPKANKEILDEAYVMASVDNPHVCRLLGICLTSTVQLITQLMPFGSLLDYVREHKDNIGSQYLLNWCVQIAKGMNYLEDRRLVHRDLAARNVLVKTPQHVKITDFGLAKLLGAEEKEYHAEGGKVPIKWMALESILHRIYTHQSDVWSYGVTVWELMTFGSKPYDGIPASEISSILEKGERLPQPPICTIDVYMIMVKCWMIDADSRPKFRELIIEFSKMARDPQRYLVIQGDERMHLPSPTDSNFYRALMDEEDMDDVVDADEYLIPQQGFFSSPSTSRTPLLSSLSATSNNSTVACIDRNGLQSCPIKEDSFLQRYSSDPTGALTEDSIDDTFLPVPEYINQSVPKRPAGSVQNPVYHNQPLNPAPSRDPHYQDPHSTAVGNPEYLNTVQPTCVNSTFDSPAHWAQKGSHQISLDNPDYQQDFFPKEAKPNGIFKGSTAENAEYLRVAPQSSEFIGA
experimentSummary: Biochemical EGFR kinase assay (Lance Ultra TR-FRET), double mutant del19/C797S
conditionSet: ATP at Km; read-out: IC50 del19/C797S, Km ATP
assayEndpoint: log10 IC50 (log10 of the value in nM)
Give log10 of IC50, with IC50 taken in nM.

molecule	log10 IC50
O=S(=O)(C1CC1)n1cc(-c2nccc(Nc3cc(N[C@H]4CC[C@@H](CO)CC4)c(-c4ccc(OCCO)cn4)cn3)n2)cn1	-0.15
CC(C)(O)c1ccc(-c2cnc(Nc3ccnc(-c4cnn(S(=O)(=O)C5CC5)c4)n3)cc2N[C@H]2CC[C@@H](C(C)(C)O)CC2)nc1	-0.30
C[C@]1(O)CC[C@@H](Nc2cc(Nc3ccnc(-c4cnn(S(=O)(=O)C5CC5)c4)n3)ncc2-c2ccc(CCC(F)(F)F)cn2)CC1	1.36
CN(C)CCOc1ccc(-c2cnc(Nc3ccnc(-c4cnn(S(=O)(=O)C5CC5)c4)n3)cc2N[C@H]2CC[C@@H](CO)CC2)nc1	-1.00

Attention now shifts to the item below.
Item: CC(O)(c1ccc(-c2cnc(Nc3ccnc(-c4cnn(S(=O)(=O)C5CC5)c4)n3)cc2NC2CCC(CO)CC2)nc1)C(F)(F)F (centres unmarked) | log10 IC50: 0.23
